Reference source: patent US4272437A

- assay-overview: Mouse blood levels after intramuscular administration
- Type: in vivo
- settings: 60 minutes after IM 40 mg/kg, average of 6 mice, read-out: Mouse blood level
- Experimental: Mouse blood levels after intramuscular administration of representative compounds of the present invention were determined and are reported in the table below.
concentration at 1 h values, listed per item
reported-endpoint: concentration at 1 h (ng/mL)

>>> df
                                   compound  inequality_sign  reported
0  NCCCCC1=C(C(=O)O)N2C(=O)CC2S1 (stereo not drawn)                =      8400
1  N[C@H]1C[C@@H](C2=C(C(=O)O)N3C(=O)C[C@H]3S2)C1                <      5000
2  NCCC1=C(C(=O)O)N2C(=O)CC2S1 (stereo not drawn)                =      5000
3  NCCOCC1=C(C(=O)O)N2C(=O)CC2S1 (stereo not drawn)                =      4000
4  NCCCC1=C(C(=O)O)N2C(=O)CC2S1 (stereo not drawn) [Example 22, Sodium 2-Aminopropylpenem-3-carboxylate]                =     11500
5  C[C@@H](O)[C@H]1C(=O)N2C(C(=O)O)=C([C@H]3C[C@H](N)C3)S[C@H]12 (relative stereo)                =      9800
